Source listed as the RNAGym collection of RNA variant scans (doi:10.7554/elife.80360).

B1: CPEB3 Ribozyme (parent)
chain: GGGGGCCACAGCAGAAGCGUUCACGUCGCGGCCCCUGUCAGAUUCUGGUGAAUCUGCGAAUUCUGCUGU

Variants of: B1
Test: self-cleavage, relative activity (ratio to wild type); higher = more cleavage; co-transcriptional
Give measured self-cleavage for each item. Keep answers brief.
Give bare numbers.

Here is how some variants turned out for self-cleavage.
{"mutation.id": "C12G C66A", "self-cleavage": 0.487}
{"mutation.id": "A40U C63G", "self-cleavage": 0.392}
{"mutation.id": "G41U G58U", "self-cleavage": 0.939}
{"mutation.id": "A23C U64G", "self-cleavage": 0.878}
{"mutation.id": "G3A G47C", "self-cleavage": 0.658}
{"mutation.id": "C24A A40C", "self-cleavage": 0.31}

I would be grateful if you could provide self-cleavage for each of the following entries.
1. G4U G14C
2. U49G U55G
3. C57A C63G
4. C32A A42U
5. G58C C66A

Marked response:
1: 0.205; 2: 0.819; 3: 0.404; 4: 0.504; 5: 0.818
